These measurements were taken from patent US20250326744A1.

tested on: mexB (PA) strain; test: Combinational effect with antibacterial agent against Pseudomonas aeruginosa (Test Examples 2 and 4): mexB (PA) strain with LVFX, TC or AZT at 1/4 MIC, EC99; format: cell-based; conditions: mexB (PA) strain; combined with AZT at 1/4 MIC; Test Example 4
recordedEndpoint: EC99, combinational effect with AZT, mexB (PA)

# count of solved cases: 5
CCOc1cccc(F)c1CN1CCN(C(=O)[C@H](N)C2CC[N+](CCc3cc(Cl)ccc3-c3ccccc3)(CC(=O)[O-])CC2)CC1 (stereo partly shown) [Example 567] : C (100 μM<EC99)
CSc1ccccc1CN1CCN(C(=O)[C@H](N)C2CCN(CCc3cc(Cl)ccc3-c3cccc(Cl)c3)CC2)CC1 [Example 552] : S (EC99≤12.5 μM)
CCOc1cccc(F)c1CN1CCN(C(=O)[C@H](N)C2CCN(CCc3cc(Cl)ccc3-c3cc(N)ccc3F)CC2)CC1 [Example 559] : S (EC99≤12.5 μM)
CCOc1cccc(F)c1CN1CCN(C(=O)[C@H](N)C2CCN(CCc3cc(Cl)ccc3C#Cc3ccccc3)CC2)CC1 [Example 546] : C (100 μM<EC99)
CCOc1cccc(F)c1CN1CCN(C(=O)[C@H](N)C2CCN(CCc3cc(Cl)ccc3-c3cc(N)ccc3Cl)CC2)CC1 [Example 560] : S (EC99≤12.5 μM)

Now consider the entry below.
[in] Lookup: EC99, combinational effect with AZT, mexB (PA) / mexB (PA) strain / CSc1ccccc1CN1CCN(C(=O)[C@H](N)C2CCN(CCc3cc(Cl)ccc3-c3cc(O)ccc3F)CC2)CC1 [Example 612]
[out] S (EC99≤12.5 μM)

----------
tested on: mexB (PA) strain; assay: Combinational effect with antibacterial agent against Pseudomonas aeruginosa (Test Examples 2 and 4): mexB (PA) strain with LVFX, TC or AZT at 1/4 MIC, EC99; assay type: cell-based; settings: mexB (PA) strain; combined with AZT at 1/4 MIC; Test Example 4
recordedEndpoint: EC99, combinational effect with AZT, mexB (PA)

# count of solved cases: 5
CCSc1cc(F)ccc1CN1CCN(C(=O)[C@H](N)C2CCN(CCc3cc(Cl)ccc3C3=CCCNC3)CC2)CC1 : B (25 μM<EC99≤100 μM)
COc1c(CN2CCN(C(=O)[C@H](N)C3CCN(CCc4cc(Cl)ccc4-c4ccccc4)CC3)CC2)cccc1B(O)O : C (100 μM<EC99)
C=C(Br)c1ccc(Cl)cc1CCN1CCC([C@@H](N)C(=O)N2CCN(Cc3c(F)cccc3OCC)CC2)CC1 : B (25 μM<EC99≤100 μM)
CCOc1cccnc1CN1CCN(C(=O)[C@H](N)C2CCN(CCc3cc(Cl)ccc3-c3ccccc3)CC2)CC1 : B (25 μM<EC99≤100 μM)
CSc1ccccc1CN1CCN(C(=O)[C@H](N)C2CCN(CCc3cc(Cl)ccc3-c3cccc(N)c3)CC2)CC1 : S (EC99≤12.5 μM)

[in] // lookup EC99, combinational effect with AZT, mexB (PA) for Cn1ccnc1CN1CCN(C(=O)[C@H](N)C2CCN(CCc3cc(Cl)ccc3-c3ccccc3)CC2)CC1
[out] C (100 μM<EC99)

[in] // lookup EC99, combinational effect with AZT, mexB (PA) for CSc1ccccc1CN1CCN(C(=O)[C@H](N)C2CCN(CCc3cc(Cl)ccc3-c3ccccc3Cl)CC2)CC1
[out] B (25 μM<EC99≤100 μM)

[in] // lookup EC99, combinational effect with AZT, mexB (PA) for CSc1ccccc1CN1CCN(C(=O)[C@H](N)C2CCN(CCc3cc(Cl)ccc3-c3cccc(F)c3)CC2)CC1
[out] S (EC99≤12.5 μM)

[in] // lookup EC99, combinational effect with AZT, mexB (PA) for N[C@@H](C(=O)N1CCN(Cc2ncc3ccccn23)CC1)C1CCN(CCc2cc(Cl)ccc2-c2ccccc2)CC1
[out] C (100 μM<EC99)

[in] // lookup EC99, combinational effect with AZT, mexB (PA) for N[C@@H](C(=O)N1CCN(Cc2ccccc2C2CC2)CC1)C1CCN(CCc2cc(Cl)ccc2-c2ccccc2)CC1
[out] B (25 μM<EC99≤100 μM)

[in] // lookup EC99, combinational effect with AZT, mexB (PA) for CCOc1cccc(F)c1CN1CCN(C(=O)[C@H](N)C2CCN(CCc3cc(Cl)ccc3-c3cn[nH]c3)CC2)CC1
[out] C (100 μM<EC99)

[in] // lookup EC99, combinational effect with AZT, mexB (PA) for N[C@@H](C(=O)N1CCN(Cc2ccccc2B(O)O)CC1)C1CCN(CCc2cc(Cl)ccc2-c2ccccc2)CC1
[out] C (100 μM<EC99)

[in] // lookup EC99, combinational effect with AZT, mexB (PA) for CSc1ccccc1CN1CCN(C(=O)[C@H](N)C2CCN(CCc3cc(Cl)ccc3-c3cc(O)ccc3Cl)CC2)CC1
[out] S (EC99≤12.5 μM)
